Below: a set of entries, each annotated with reported kon.
- TARGET_DESC: T1, mouse serum albumin (mouse, UniProt P07724 25-608)
- T1 construct: mature; purified protein on CM5 chips for BIAcore; also called MSA; mouse SA
- ASSAY_REMARKS: BIAcore SPR;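 also: purified dAbs run at 1 µM, 500 nM and 50 nM over human, cynomolgus, mouse and rat serum albumin in BIAcore binding measurements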
Kindly answer with a numeric value in M⁻¹ s⁻¹, unit omitted.

{"BINDER": "DOM7h-14-19 (other, Vk dAb (AlbudAb)) VL: DIQMTQSPSSLSASVGDRVTISCRASQWIGSQLSWYQQKPGEAPKLLIMWRSSLQSGVPSRFSGSGSGTDFTLTISSLQPEDFATYYCAQGAALPRTFGQGTKVEIKR", "kon, M⁻¹ s⁻¹": "1.16e+06"}
{"BINDER": "DOM7h-11-19 (other) VL: DIQMTQSPSSLSASVGDRVTITCRASRPIGTMLSWYQQKPGKAPKLLILFGSRLQSGVPSRFSGSGSGTDFTLTISSLQPEDFATYYCAQTGTHPTTFGQGTKVEIKR", "kon, M⁻¹ s⁻¹": "1.4e+06"}
{"BINDER": "DOM7h-14-10 (other, Vk dAb (AlbudAb)) VL: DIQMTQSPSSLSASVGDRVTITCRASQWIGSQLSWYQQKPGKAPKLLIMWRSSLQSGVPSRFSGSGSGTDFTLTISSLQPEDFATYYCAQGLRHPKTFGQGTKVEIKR", "kon, M⁻¹ s⁻¹": "1.29e+06"}

# ---- query binder ----
Memo: DOM7h-11-15 (other) VL: DIQMTQSPSSLSASVGDRVTITCRASRPIGTMLSWYQQKPGKAPKLLILAFSRLQSGVPSRFSGSGSGTDFTLTISSLQPEDFATYYCAQAGTHPTTFGQGTKVEIKR , reported kon: 1.1e+06
